- tgt: YFP-HA-βlac-DAT (Homo sapiens, UniProt Q01959)
- Sequence (Q01959 1-171 limits assumed): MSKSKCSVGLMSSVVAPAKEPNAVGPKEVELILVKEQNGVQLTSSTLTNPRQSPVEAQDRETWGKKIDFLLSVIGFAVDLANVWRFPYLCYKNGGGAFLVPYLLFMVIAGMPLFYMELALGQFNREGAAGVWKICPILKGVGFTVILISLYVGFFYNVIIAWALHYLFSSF
- Sequence (Q01959 237-620 limits assumed): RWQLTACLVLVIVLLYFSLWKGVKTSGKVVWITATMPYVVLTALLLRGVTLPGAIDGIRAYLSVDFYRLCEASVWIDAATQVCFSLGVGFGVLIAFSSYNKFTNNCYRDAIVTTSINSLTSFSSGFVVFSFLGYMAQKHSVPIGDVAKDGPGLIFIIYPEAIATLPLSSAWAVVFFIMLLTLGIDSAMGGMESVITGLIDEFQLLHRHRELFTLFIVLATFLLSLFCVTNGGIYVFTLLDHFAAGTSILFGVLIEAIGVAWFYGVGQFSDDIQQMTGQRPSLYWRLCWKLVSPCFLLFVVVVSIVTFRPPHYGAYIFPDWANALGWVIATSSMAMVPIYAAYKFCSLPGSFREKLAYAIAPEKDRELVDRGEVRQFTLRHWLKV
- test_name: β-lactamase (βlac) surface expression assay
- Assay type: cell-based
- condition_description: HEK293, HEK cells expressing YFP-HA-βlac-DAT, overnight (16 h) incubation, up to 100 μM, normalized to vehicle; assumed effective EMax; read-out: EMax (%), WT DAT surface expression
- Protocol: The βlac surface expression assay was performed by following the method outlined in [Lam et al. (2013)] and [Beerepoot et al. (2015], [2016)]. […] After removal of the final PBS wash, 200 μL of the nitrocefin solution was added to each well and the absorbance was immediately read. The EPOCH microplate spectrophotometer (BioTek) was used to measure absorbance (486 nm) for each well every minute for 30 min. […] For additional measure, nitrocefin was added and the absorbance was read. […]
measure: Emax (%)
Hi! Could you send only the number? It should be in %, unit omitted.

CC(NC1CC1)C(=O)c1cccc(Br)c1 (stereo not shown) [PAL-586]	93
CN1CCc2[nH]c3ccccc3c2CC1 [Ibogaminalog]	175
Cc1cccc(C(=O)C(C)NC2CCC2)c1 (stereo not shown) [PAL-1411]	110
CN1CCc2[nH]c3ccc(O)cc3c2CC1 [Noribogainalog, noribogainalog]	185

Sure, the documented Emax for CC(NC(C)(C)C)C(=O)c1ccc(F)c(F)c1 (stereo not shown) [RTI-13] is 99
